Origin of measurements: ChEMBL document CHEMBL4689842

# Test system: HEK-293T
# test.summary: Multiplex assay against HEK293T
# Type: toxicity, cell-based
# test.settings: human, 12 h, 1 µM, compound concentration 1 uM, replicate 2
# Population Hoechst High Intensity Objects (%) listing for each entry below
Give the number; % is assumed, so skip it.

Recorded results for 3 compounds are shown here.
compound	unit.string	test.result
CCc1cccc(CC)c1NC(=O)c1nn(C)c2c1CCc1cnc(Nc3ccc(N4CCN(C)CC4)cc3OC)nc1-2	%	7
CCc1cccc(CC)c1NC(=O)c1nn(C)c2c1CCc1cnc(Nc3ccc(C(=O)NC4CCN(C)CC4)cc3OC(F)(F)F)nc1-2	%	4
CCN1CCN(c2ccc(Nc3cc(N(C)C(=O)Nc4c(Cl)c(OC)cc(OC)c4Cl)ncn3)cc2)CC1	%	3

// next item, Population Hoechst High Intensity Objects (%) requested
Query string: Consider the compound CN(C)C(=O)C(CCN1CCC(O)(c2ccc(Cl)cc2)CC1)(c1ccccc1)c1ccccc1.Cl [LOPERAMIDE HYDROCHLORIDE] and give its recorded Population Hoechst High Intensity Objects (%).
Result string: 0

* * *

# System: Fibroblast
# test.summary: Multiplex assay against human fibroblast
# Format: toxicity, cell-based
# test.settings: 12 h, 1 µM, compound concentration 1 uM, replicate 2
readout.label: Population Pyknosed Nuclei (%)
Dear colleague, please return just the value in %, with no unit written.

compound	Population Pyknosed Nuclei (%)
COc1ccc(-c2ccc3c(N4CCOCC4)nc(N4C[C@@H](C)O[C@@H](C)C4)nc3n2)cc1CO	8
O=C1NC(=O)C(c2cnc3ccccn23)=C1c1cn2c3c(cc(F)cc13)CN(C(=O)N1CCCCC1)CC2	9
COc1cc2ncnc(Nc3ccc(F)c(Cl)c3)c2cc1NC(=O)/C=C/CN1CCCCC1 [DACOMITINIB ANHYDROUS]	6
Cn1nc(C(F)(F)F)cc1-c1cnc(N2CCc3cc(S(=O)(=O)Nc4c(F)cc(Cl)cc4F)cc(N4CCCC4=O)c32)nc1	17
CCCS(=O)(=O)c1nc(NC2CC2)cc(-c2ccc3c(ccn3C3CC(C)(C)NC(C)(C)C3)c2)n1	13

Query string: Please look at this compound and report its Population Pyknosed Nuclei (%): CCCS(=O)(=O)Nc1ccc(F)c(C(=O)c2c[nH]c3ncc(Cl)cc23)c1F
Result string: 12

Query string: Name the recorded Population Pyknosed Nuclei (%) of the compound listed here: CCNc1cc(N[C@H]2CC[C@H](O)CC2)nc(Nc2ccc3c(ccn3Cc3ccccc3)c2)n1
Result string: 3

Query string: Output Population Pyknosed Nuclei (%) of O=C(Nc1ccc(-n2nc(-c3cccnc3)cc2C(F)(F)F)cn1)c1ccc(-c2ccccc2)c(F)c1
Result string: 9

Query string: Recall and state the measured Population Pyknosed Nuclei (%) for C=CCn1c(=O)c2cnc(Nc3ccc(N4CCN(C)CC4)cc3)nc2n1-c1cccc(C(C)(C)O)n1 .
Result string: 14

Query string: Please list Population Pyknosed Nuclei (%) recorded for the compound CN[C@@H]1C[C@H]2O[C@@](C)([C@@H]1OC)n1c3ccccc3c3c4c(c5c6ccccc6n2c5c31)C(=O)NC4
Result string: 32

Query string: Dear colleague, please send me the reported Population Pyknosed Nuclei (%) for CCn1cc(-c2ccnc3[nH]c(-c4cccc(CN(C)C)c4)cc23)c(-c2ccc(NC(=O)N(C)C)cc2)n1 when you can.
Result string: 9

Query string: Supply recorded Population Pyknosed Nuclei (%) for C=C1/C(=C\C=C2/CCC[C@]3(C)[C@@H]([C@H](C)/C=C/[C@H](C)C(C)C)CC[C@@H]23)C[C@@H](O)C[C@@H]1O here.
Result string: 8

Query string: Supply reported Population Pyknosed Nuclei (%) belonging to this compound: CCN1CCN(Cc2ccc(Nc3ncc(F)c(-c4cc(F)c5nc(C)n(C(C)C)c5c4)n3)nc2)CC1.CS(=O)(=O)O
Result string: 14

* * *

# Test system: Fibroblast
# test.summary: Multiplex assay against human fibroblast
# Format: toxicity, cell-based
# test.settings: 12 h, 1 µM, compound concentration 1 uM, replicate 2
// values below are reported Population Pyknosed Nuclei (%)
Use % as the unit, but write only the number.

Some molecules with known Population Pyknosed Nuclei (%) results, for comparison:
Cl.Oc1ccc2c3c1O[C@H]1c4[nH]c5c(c4C[C@@]4(O)[C@@H](C2)N(CC2CC2)CC[C@]314)C[C@@]1(O)[C@H]2Cc3ccc(O)c4c3[C@@]1(CCN2CC1CC1)[C@H]5O4 10
O=C(Nc1cccnn1)N1CCC(=Cc2cccc(Oc3ccc(C(F)(F)F)cn3)c2)CC1 10

Please look at the following molecule next.
Query string: Please list Population Pyknosed Nuclei (%) recorded for the molecule O=C(Nc1ccc(-c2ccnc(Nc3ccc(N4CCOCC4)cc3)n2)cc1)[C@@H]1CCCN1
Result string: 10

* * *

# System: HEK-293T
# test.summary: Incucyte cell viability with HEK293T; further: filed as whole numbers so only -1 and 0 and 1 occur
# Assay type: toxicity, cell-based
# test.settings: human, 6 h, 10 µM, compound concentration 10 uM, replicate number 2, timepoint 6 hours
readout.label: Growth Rate
Respond numerically, and do not add a unit to the figure.

Consider the reported Growth Rate for these compounds:
compound	Growth Rate
Cc1nc(-c2ccc(C(F)(F)F)cc2)sc1COc1ccc([C@H](CC(=O)O)c2ccon2)cc1	1
Cl.O=C([C@@H](Cc1cccc(C(F)(F)F)c1)NS(=O)(=O)c1cc(F)c2c(c1)CCNC2)N1CCCC1	1
O=c1ccn([C@@H]2O[C@H](COP(=O)([O-])OP(=O)([O-])O)[C@@H](O)[C@H]2O)c(=O)[nH]1.[Na+].[Na+]	1
CC(=O)N1CCC(c2ccc(C(=O)NC(=N)N)cc2C(F)(F)F)CC1	1

Query string: Identify measured Growth Rate associated with C=C(c1ccc(C(=O)O)cc1)c1cc2c(cc1C)C(C)(C)CCC2(C)C
Result string: 1

Query string: Return Growth Rate for the following compound: CCCCN(CCCC)C(=O)CN1C[C@H](c2cc(OC)c3c(c2)OCO3)[C@@H](C(=O)O)[C@@H]1CC(C)(C)CCC.Cc1ccc(S(=O)(=O)O)cc1
Result string: 0

Query string: Give the value of Growth Rate reported for the following: CC(C)C[C@H](CO)Nc1nc(S[C@@H](C)c2ccccc2)nc2nc(N)sc12
Result string: 1

* * *

# System: Fibroblast
# test.summary: Multiplex assay against human fibroblast
# Format: toxicity, cell-based
# test.settings: 12 h, 10 µM, compound concentration 10 uM, replicate 2
// returns rule not met unless Population Normal (%) is strictly below 90%, in which case rule met

Take a look at these entries with their results.
CCCS(=O)(=O)Nc1ccc(F)c(C(=O)c2c[nH]c3ncc(Cl)cc23)c1F rule met
CCc1cccc(CC)c1NC(=O)c1nn(C)c2c1CCc1cnc(Nc3ccc(C(=O)NC4CCN(C)CC4)cc3OC(F)(F)F)nc1-2 rule not met
O=C(Nc1ccc(-n2nc(-c3cccnc3)cc2C(F)(F)F)cn1)c1ccc(-c2ccccc2)c(F)c1 rule not met

Query string: Here's an entry: C=C1/C(=C\C=C2/CCC[C@]3(C)[C@@H]([C@H](C)/C=C/[C@H](C)C(C)C)CC[C@@H]23)C[C@@H](O)C[C@@H]1O . Is its Population Normal (%) below 90%?
Result string: rule not met

* * *

# Tested on: U2OS
# test.summary: Multiplex assay against U2OS
# Type: toxicity, cell-based
# test.settings: human, 24 h, 1 µM, compound concentration 1 uM, replicate 2
Overview of recorded Population Membrane Permeable-Phenotype (%) for various compounds
Write the value in % as a bare number.

Field: example entries. Status: answers known.
compound	test.result
CCCn1c(=O)c2[nH]c(-c3cnn(Cc4cccc(C(F)(F)F)c4)c3)nc2n(CC)c1=O	2
O=C(Nc1ccc(-n2nc(-c3cccnc3)cc2C(F)(F)F)cn1)c1ccc(-c2ccccc2)c(F)c1	4

Query string: Could you please provide reported Population Membrane Permeable-Phenotype (%) for CCN1CCN(Cc2ccc(Nc3ncc(F)c(-c4cc(F)c5nc(C)n(C(C)C)c5c4)n3)nc2)CC1.CS(=O)(=O)O ? Thanks!
Result string: 21

Query string: Output Population Membrane Permeable-Phenotype (%) of CN1CCC(=C2c3ccccc3CC(=O)c3sccc32)CC1.O=C(O)/C=C/C(=O)O [KETOTIFEN FUMARATE]
Result string: 9

Query string: Output Population Membrane Permeable-Phenotype (%) of Cc1cn(-c2cc(NC(=O)c3ccc(C)c(Nc4nccc(-c5cccnc5)n4)c3)cc(C(F)(F)F)c2)cn1
Result string: 2

Query string: State, in one line, measured Population Membrane Permeable-Phenotype (%) of COc1ccc(S(=O)(=O)N(CCO)c2ccccc2CN(C)C/C=C/c2ccc(Cl)cc2)cc1.O=P(O)(O)O
Result string: 94

* * *

# Test system: U2OS
# test.summary: Multiplex assay against U2OS
# Assay type: toxicity, cell-based
# test.settings: human, 24 h, 10 µM, compound concentration 10 uM, replicate 2
// label = rule met if Population Fragmented Nuclei (%) is not less than 10%, otherwise rule not met

molecule	category.label
Cl.Oc1ccc2c3c1O[C@H]1c4[nH]c5c(c4C[C@@]4(O)[C@@H](C2)N(CC2CC2)CC[C@]314)C[C@@]1(O)[C@H]2Cc3ccc(O)c4c3[C@@]1(CCN2CC1CC1)[C@H]5O4	rule met
COc1ccc(S(=O)(=O)N(CCO)c2ccccc2CN(C)C/C=C/c2ccc(Cl)cc2)cc1.O=P(O)(O)O	rule not met
Cc1cn(-c2cc(NC(=O)c3ccc(C)c(Nc4nccc(-c5cccnc5)n4)c3)cc(C(F)(F)F)c2)cn1	rule met
COc1cc(N2CCN(C)CC2)ccc1Nc1ncc2c(n1)N(C)c1ccccc1C(=O)N2C	rule met

Query string: Quick check: does CN1CCC(=C2c3ccccc3CC(=O)c3sccc32)CC1.O=C(O)/C=C/C(=O)O [KETOTIFEN FUMARATE] have Population Fragmented Nuclei (%) greater than or equal to 10%?
Result string: rule not met
